Tested on: MB453 cells
Test: alamarBlue MB453 cell assay (antiproliferative/cytotoxicity)
Assay type: cell-based
Settings: Homo sapiens; MDA MB 453 breast cancer cell line
Measured Attribute: EC50
Record the result as a number with its unit.

> print(dat)
                                   molecule  recorded.measurement
1  Cc1ncc(C#Cc2c(C)ncnc2N2CCOCC2)cc1NS(=O)(=O)c1ccccc1Cl [Example I-5]                202 nM

What measured EC50 goes with CCc1ncnc(N2CCN(C3CC3)CC2)c1C#Cc1cnc(C)c(NS(=O)(=O)c2ccc(F)cc2)c1 [Example I-28] ?
1850 nM

What measured EC50 goes with Cc1ncc(C#Cc2c(C)ncnc2N2CCCCC2)cc1NS(=O)(=O)c1ccc(F)cc1F [Example I-14] ?
444 nM

What measured EC50 goes with COc1ncc(C#Cc2c(C)ncnc2N2CCOCC2)cc1NS(=O)(=O)c1ccc(Cl)s1 [Example I-85] ?
40 nM
